measuredTarget: MTHFD2 recombinant human enzyme (Homo sapiens, UniProt P13995)
Sequence (P13995 36-350): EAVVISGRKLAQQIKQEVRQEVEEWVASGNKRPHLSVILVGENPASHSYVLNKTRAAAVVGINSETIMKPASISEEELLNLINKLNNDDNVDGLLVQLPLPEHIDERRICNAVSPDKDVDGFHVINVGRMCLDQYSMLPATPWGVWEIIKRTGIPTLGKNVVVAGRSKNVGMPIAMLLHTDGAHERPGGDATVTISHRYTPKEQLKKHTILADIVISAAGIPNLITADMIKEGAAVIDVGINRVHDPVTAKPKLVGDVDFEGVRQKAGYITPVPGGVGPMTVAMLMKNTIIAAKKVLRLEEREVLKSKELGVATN
methodSummary: MTHFD2 inhibition assay (NAD(P)H-Glo luminescence)
pIC50: −log10 of the molar value.
// pIC50 lookup, one value per entry

Look over these answered cases.
>>> reportedmeasurement("COC[C@H]1CN(c2cc(Cl)c3c4c(c(=O)oc3c2C)CN(C(=O)c2cc(N(C)C)c(C(=O)NS(=O)(=O)N3CCC(C(F)(F)F)CC3)cc2F)CC4)CCN1C")
"7.00 to 8.00"
>>> reportedmeasurement("CCOc1cc(C(=O)N2CCc3c(c(=O)oc4c(C)c(N5CCN(C)[C@@H](COC)C5)cc(C)c34)C2)c(F)cc1C(=O)NS(=O)(=O)N1C2CCC1COC2")
"7.00 to 8.00"

Would you kindly share the measured pIC50 for COC[C@H]1CN(c2cc(C)c3c4c(c(=O)oc3c2C)CN(C(=O)c2ccc(C(=O)NS(=O)(=O)C3(C)CC3)c(N(C)C)c2)CC4)CCN1C ? 8.00 to 9.00

Now the compound COC[C@H]1CN(c2cc(C)c3c4c(c(=O)oc3c2C)CN(C(=O)c2ccc(C(=O)NS(=O)(=O)N(C)C)c(N3C5CCC3CC5)c2F)CC4)CCN1C 8.00 to 9.00

And what about the compound COC[C@H]1CN(c2cc(C)c3c4c(c(=O)oc3c2C)CN(C(=O)c2ccc(C(=O)NS(=O)(=O)N3CCCC3)c(OC(C)C)c2F)CC4)CCN1C ? 8.00 to 9.00

Another compound: COC[C@H]1CN(c2cc(C)c3c4c(c(=O)oc3c2C)CN(C(=O)c2ccc(C(=O)NS(=O)(=O)C3(C)CC3)c(N3CCC[C@@H]3C)c2)CC4)CCN1C 7.00 to 8.00

For CCOc1c(C(=O)NS(=O)(=O)N2C3CCC2CC3)ccc(C(=O)N2CCc3c(c(=O)oc4c(Cl)c(N5CCN(C)[C@@H](COC)C5)ccc34)C2)c1F then? 7.00 to 8.00

And COC[C@H]1CN(c2cc(C)c3c4c(c(=O)oc3c2C)CN(C(=O)c2cc(OC)c(C(=O)NS(=O)(=O)N(C)C)c(N3CCCC3)c2)CC4)CCN1C ? 7.00 to 8.00

----------
The entries below are paired with their reported IC50.
measuredTarget: MTHFD2 recombinant human enzyme (Homo sapiens)
methodSummary: MTHFD2 inhibition assay (NAD(P)H-Glo luminescence)

Record excerpt, results attached:
>>> reportedmeasurement("CCOc1cc(C(=O)N2CCc3c(c(=O)oc4c(C)c(N5CCN(C)[C@@H](COC)C5)cc(Cl)c34)C2)c(F)cc1C(=O)NS(=O)(=O)N1CCCC1")
"1 to 10 nM"
>>> reportedmeasurement("COC[C@H]1CN(c2cc(C)c3c4c(c(=O)oc3c2C)CN(C(=O)c2cc(F)c(C(=O)NS(=O)(=O)N3CCCC3)cc2C)CC4)CCN1C")
"1 to 10 nM"
>>> reportedmeasurement("COC[C@@H]1CN(c2cc(C)c3c4c(c(=O)oc3c2C)CN(C(=O)c2ccc(C(=O)NS(=O)(=O)N3CCCC3)c(OC3CCC3)c2)CC4)CCN1C")
"10 to 100 nM"
>>> reportedmeasurement("COC[C@H]1CN(c2cc(Cl)c3c4c(c(=O)oc3c2C)CN(C(=O)c2ccc(C(=O)NS(=O)(=O)N3CC5CC5C3)c(OC)c2)CC4)CCN1C (stereo partly drawn)")
"10 to 100 nM"
>>> reportedmeasurement("COC[C@H]1CN(c2cc(C)c3c4c(c(=O)oc3c2C)CN(C(=O)c2ccc(C(=O)NS(=O)(=O)N3CCCC3)c(N3CCC[C@H]3C)c2)CC4)CCN1C")
"100 to 1000 nM"

Name the recorded IC50 for COC[C@H]1CN(c2cc(C)c3c4c(c(=O)oc3c2C)CN(C(=O)c2ccc(C(=O)NS(=O)(=O)N(C)C)c(N3CC5CC5C3)c2)CC4)CCN1C (stereo partly drawn) . 1 to 10 nM

----------
measuredTarget: MTHFD2 recombinant human enzyme (Homo sapiens, UniProt P13995)
methodSummary: MTHFD2 inhibition assay (NAD(P)H-Glo luminescence)
experimentalConditions: selectivity of MTHFD2 inhibition over MTHFD1, band
readoutType: MTHFD1/MTHFD2 IC50 ratio

>>> reportedmeasurement("COC[C@H]1CN(c2cc(Cl)c3c4c(c(=O)oc3c2C)CN(C(=O)c2ccc(C(=O)NS(=O)(=O)N3CCC[C@@H]3COC)c(OC)c2)CC4)CCN1C")
"J (>30)"
>>> reportedmeasurement("COC[C@H]1CN(c2cc(C)c3c4c(c(=O)oc3c2C)CN(C(=O)c2cc(OC3CCCC3)c(C(=O)NS(=O)(=O)N3CCCC3)c(C(F)(F)F)c2)CC4)CCN1C")
"J (>30)"
>>> reportedmeasurement("COC[C@H]1CN(c2cc(C)c3c4c(c(=O)oc3c2C)CN(C(=O)c2ccc(C(=O)NS(=O)(=O)N3CCCC3)c(N3CC5CC5C3)c2F)CC4)CCN1C (stereo partly drawn)")
"F (<3)"
>>> reportedmeasurement("COC[C@H]1CN(c2cc(C)c3c4c(c(=O)oc3c2C)CN(C(=O)c2ccc(C(=O)NS(=O)(=O)N(C)C(C)C)c(OC3CCC3)c2F)CC4)CCN1C")
"F (<3)"

Which MTHFD1/MTHFD2 IC50 ratio value is on record for CCOc1cc(C(=O)N2CCc3c(c(=O)oc4c(C)c(N5CCN(C)[C@@H](COC)C5)cc(Cl)c34)C2)c(F)cc1C(=O)NS(=O)(=O)N1CCCC1 ? J (>30)

----------
measuredTarget: MTHFD1 recombinant human enzyme (Homo sapiens)
Sequence (P11586 2-291 limits assumed): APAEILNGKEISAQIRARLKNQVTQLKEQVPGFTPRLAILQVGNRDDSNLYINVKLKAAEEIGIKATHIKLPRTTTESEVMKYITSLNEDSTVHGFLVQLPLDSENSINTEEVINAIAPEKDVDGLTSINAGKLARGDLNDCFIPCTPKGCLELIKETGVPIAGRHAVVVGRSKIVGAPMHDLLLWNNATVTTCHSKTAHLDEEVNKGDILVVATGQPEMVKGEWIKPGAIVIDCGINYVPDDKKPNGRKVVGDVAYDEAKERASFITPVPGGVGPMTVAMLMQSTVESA
methodSummary: MTHFD1 inhibition assay (NAD(P)H-Glo luminescence)
experimentalConditions: MTHFD1 IC50, recombinant human enzyme 200 nM, NADP, band
readoutType: IC50

# count of solved cases: 2
>>> reportedmeasurement("COC[C@H]1CN(c2cc(C)c3c4c(c(=O)oc3c2C)CN(C(=O)c2ccc(C(=O)NS(=O)(=O)N(C)C)c(N3C5CCC3CC5)c2F)CC4)CCN1C")
"1 to 10 nM"
>>> reportedmeasurement("COC[C@H]1CN(c2cc(C)c3c4c(c(=O)oc3c2C)CN(C(=O)c2ccc(C(=O)NS(=O)(=O)N3CCC(F)CC3)c(OC)c2F)CC4)CCN1C")
"100 to 1000 nM"

Fill in the blank: the reported IC50 of COC[C@H]1CN(c2cc(C)c3c4c(c(=O)oc3c2C)CN(C(=O)c2cc(N(C)C)c(C(=O)NS(=O)(=O)N3C5CCC3COC5)cc2F)CC4)CCN1C is ____. 1000 to 5000 nM

----------
measuredTarget: MTHFD1 recombinant human enzyme (Homo sapiens, UniProt P11586)
Sequence (P11586 2-291 limits assumed): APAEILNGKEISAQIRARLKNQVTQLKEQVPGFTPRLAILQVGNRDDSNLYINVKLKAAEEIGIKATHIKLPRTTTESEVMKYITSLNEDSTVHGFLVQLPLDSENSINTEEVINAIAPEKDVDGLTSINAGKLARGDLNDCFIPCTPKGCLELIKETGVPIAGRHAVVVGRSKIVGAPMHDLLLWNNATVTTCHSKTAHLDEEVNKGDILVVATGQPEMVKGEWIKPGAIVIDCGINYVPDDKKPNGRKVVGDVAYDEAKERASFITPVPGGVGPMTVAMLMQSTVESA
methodSummary: MTHFD1 inhibition assay (NAD(P)H-Glo luminescence)
experimentalConditions: MTHFD1 IC50, recombinant human enzyme 200 nM, NADP, band
pIC50: −log10 of the molar value.
# pIC50 per record follows

>>> reportedmeasurement("COC[C@H]1CN(c2cc(C)c3c4c(c(=O)oc3c2C)CN(C(=O)c2ccc(C(=O)NS(=O)(=O)N3C5CCC3COC5)c(OC)c2F)CC4)CCN1C")
"6.00 to 7.00"

What value of pIC50 on MTHFD1 recombinant human enzyme (Homo sapiens, UniProt P11586) does COC[C@H]1CN(c2cc(Cl)c3c4c(c(=O)oc3c2C)CN(C(=O)c2cc(N(C)C)c(C(=O)NS(=O)(=O)N(C3CC3)C3CC3)cc2F)CC4)CCN1C have? 6.00 to 7.00

What about COC[C@H]1CN(c2cc(C)c3c4c(c(=O)oc3c2C)CN(C(=O)c2ccc(C(=O)NS(=O)(=O)N(C)C3CCCC3)c(OC)c2F)CC4)CCN1C ? 6.00 to 7.00

Thanks! And COC[C@H]1CN(c2cc(Cl)c3c4c(c(=O)oc3c2C)CN(C(=O)c2cc(N(C)C)c(C(=O)NS(=O)(=O)N(C)C)cc2Cl)CC4)CCN1C ? 5.30 to 6.00

Next: COC[C@H]1CN(c2ccc3c4c(c(=O)oc3c2C)CN(C(=O)c2ccc(C(=O)NS(=O)(=O)N(C)C)c(N3CCCC3)c2)CC4)CCN1C 7.00 to 8.00

Now give it for CCOc1cc(C(=O)N2CCc3c(c(=O)oc4c(C)c(N5CCN(C)[C@@H](COC)C5)cc(C)c34)C2)c(F)cc1C(=O)NS(=O)(=O)N1CC[C@@H](F)C1 too. 6.00 to 7.00

Values compiled from patent US12662489B2.
